Could you please report measured GI50 for the items listed next?
- Test system: A549 NSCLC
- protocolText: NCI tumour cell line growth inhibition, 48 h

## Input Provide GI50 value for the following compound: CC(=O)O.CC(=O)O.CC(=O)O.CC(=O)O.[Rh].[Rh]
## Output 28.6 µM

## Input Provide GI50 value for the following compound: CC/C=C\C/C=C/C=C1/C(=O)C=C[C@@H]1C/C=C\CCCC(=O)OC
## Output 5.71 µM

## Input Provide GI50 value for the following compound: O=C1/C(=C/c2cccc(Br)c2)COc2ccc(O)c(O)c21
## Output 1.83 µM

## Input Provide GI50 value for the following compound: CCSc1nc(N)c(C#N)c(-c2ccco2)c1C#N
## Output 41.4 µM

## Input Provide GI50 value for the following compound: COc1cc(/C=C/[N+](=O)[O-])cc(OC)c1OC
## Output 4.42 µM

## Input Provide GI50 value for the following compound: COc1cccc(CC(C)=C(c2ccc(OCCCN(C)C)cc2)c2ccc(OCCCN(C)C)cc2)c1
## Output 0.557 µM

## Input Provide GI50 value for the following compound: Brc1cccc(-c2cc(-c3ccc4nccnc4c3)[nH]n2)c1
## Output 0.86 µM

## Input Provide GI50 value for the following compound: Oc1c(Cl)cc(Cl)c2cccnc12
## Output 3.49 µM

## Input Provide GI50 value for the following compound: Cc1cc(NC(=O)c2cnc(N3CCN(CCOCCOCCOCCOCCC(=O)N[C@H](C(=O)N4C[C@H](O)C[C@H]4C(=O)N[C@@H](C)c4ccc(-c5scnc5C)cc4)C(C)(C)C)CC3)cn2)c2ncccc2c1
## Output 6.19 µM

## Input Provide GI50 value for the following compound: NS(=O)(=O)c1cccc(-c2ccc3c(NC(=O)C4CC4)n[nH]c3c2)c1
## Output > 25 µM

* * *

- Tested on: RXF 393 renal
- protocolText: NCI tumour cell line growth inhibition, 48 h
Could you please report measured GI50 for the items listed next?

## Input Provide GI50 value for the following compound: Nc1n[nH]c(N)c1N=Nc1ccc(O)cc1
## Output 18400 nM

## Input Provide GI50 value for the following compound: C=CCCCOC1[C@H](OCc2ccccc2)C(OCc2ccccc2)C(OC)O[C@@H]1CNC(=O)c1cccc(I)c1 (stereo partly specified)
## Output 3910 nM

## Input Provide GI50 value for the following compound: C=C1CC[C@@H]2[C@](C)(COC(C)=O)[C@H](OC(C)=O)CC[C@@]2(C)[C@@H]1CC(Nc1ccc(S(=O)(=O)Nc2nccs2)cc1)C1=CCOC1=O (stereo partly specified)
## Output 2360 nM

## Input Provide GI50 value for the following compound: NNc1c2ccccc2nc2ccccc12
## Output 7400 nM

## Input Provide GI50 value for the following compound: O=C(Nc1cnc(C(F)(F)F)cn1)c1cc(Cl)ccc1O
## Output 318 nM

## Input Provide GI50 value for the following compound: COc1ccc2c(c1)C(=O)c1c-2n(CCCN)c(=O)c2cc([N+](=O)[O-])ccc12
## Output < 10 nM

## Input Provide GI50 value for the following compound: NS(=O)(=O)c1cccc(-c2ccc3c(NC(=O)C4CC4)n[nH]c3c2)c1
## Output > 15000 nM

## Input Provide GI50 value for the following compound: Cc1oc2c(c1C(=O)N1CC[C@@H](N)C1)C(=O)c1c(c(O)c3ccccc3c1O)C2=O
## Output 2530 nM

## Input Provide GI50 value for the following compound: NC(=O)c1cccc(-c2cc(C(N)=O)ccc2Cl)c1
## Output 2110 nM

## Input Provide GI50 value for the following compound: CCN1C(=O)N(CC)C2C1NN=c1s/c(=C\c3ccc[nH]3)c(=O)n12 (stereo unspecified)
## Output 286 nM

## Input Provide GI50 value for the following compound: O=c1c(O)cccn1CCCN(CCCn1cccc(O)c1=O)CCn1cccc(O)c1=O
## Output 1860 nM

From: PubChem BioAssay (NCI)
